# Tested on: EKVX NSCLC
# PROTOCOL TEXT: NCI tumour cell line growth inhibition, 48 h
QUANTITY KIND: TGI

*Q* Report measured TGI; entry is CCc1nccc2c1nc(-c1nonc1N)n2CC
*A* > 25 µM

*Q* Report measured TGI; entry is O=C1c2ccccc2S(=O)(=O)c2c1cccc2[N+](=O)[O-]
*A* > 8.6 µM

*Q* Report measured TGI; entry is O=[N+]([O-])c1ccc(-c2nnc(C34CC5CC(CC(C5)C3)C4)o2)cc1
*A* > 100 µM

*Q* Report measured TGI; entry is COc1cc(Cn2c3ccccc3c3cc(C)c4c(c32)C=CC(C)(CCC=C(C)C)O4)cc2c1[nH]c1ccccc12 (centres undefined)
*A* > 100 µM

*Q* Report measured TGI; entry is O=C(CCC(NC(=O)OCc1ccccc1)C(=O)OCc1ccccc1)Nc1ccc(OCc2ccccc2)cc1 (centres undefined)
*A* > 31.6 µM

*Q* Report measured TGI; entry is COc1cc(C(=O)C/C(CCCC(=O)Nc2ccccc2[N+](=O)[O-])=N/NC(=O)c2cc3ccccc3cc2O)ccc1O
*A* > 84.7 µM

*Q* Report measured TGI; entry is COc1ccc2nc(-n3c(/C=C/c4ccccc4O)nc4ccccc4c3=O)sc2c1
*A* 39.7 µM

*Q* Report measured TGI; entry is CC1SC(c2ccccc2)N(CCc2cccs2)C1=O (centres undefined)
*A* 12.7 µM

*Q* Report measured TGI; entry is CC(=O)N1C(=O)/C(=C\C(=O)c2ccc([N+](=O)[O-])cc2)c2ccccc21
*A* 51.6 µM

====

# Test system: NCI-H460 lung
# PROTOCOL TEXT: NCI tumour cell line growth inhibition, 48 h
QUANTITY KIND: TGI

{"COMPOUND": "CC1(C)CC(=O)c2c(C(F)(F)F)nn(-c3ccc(C(N)=O)c(NC4CCC(OC(=O)CN)CC4)c3)c2C1 (stereo unspecified)", "TARGET DESC": "NCI-H460 lung", "TGI": "> 100 µM"}
{"COMPOUND": "CSc1ccc(C2OC(=O)c3ccccc32)c2ccccc12 (stereo unspecified)", "TARGET DESC": "NCI-H460 lung", "TGI": "> 100 µM"}
{"COMPOUND": "CN(C)CCNc1c2c(c(NCCN(C)C)c3[nH]ccc13)C(=O)c1ccccc1C2=O", "TARGET DESC": "NCI-H460 lung", "TGI": "2.87 µM"}

*Q* State measured TGI of the compound CCOC(=O)c1c2c(n3ccccc13)C(=O)c1ccccc1C2=O with NCI-H460 lung.
*A* 15.6 µM

*Q* State measured TGI of the compound C/C(=N\NS(=O)(=O)c1ccccc1)c1ccc(Cl)c(Cl)c1 with NCI-H460 lung.
*A* > 100 µM

*Q* State measured TGI of the compound Cn1cnc(CCc2ccccc2)n1 with NCI-H460 lung.
*A* > 100 µM

====

TGI values, listed per item
# Test system: U251 CNS
# PROTOCOL TEXT: NCI tumour cell line growth inhibition, 48 h

Below, each entry is followed by its recorded TGI result.
{"COMPOUND": "O=C(N/N=C(/c1ccccc1)C(F)(F)F)c1ccncc1", "TGI": "> 100 µM"}
{"COMPOUND": "COc1ccc(-c2nn3c(-c4cc(F)c(Cl)cc4Cl)nnc3s2)cc1", "TGI": "74.5 µM"}
{"COMPOUND": "CCCCCCCCCCC(C(=O)O)C1(C(=O)O)CCC(=O)O1 (centres undefined)", "TGI": "> 100 µM"}

*Q* State measured TGI of the compound O=C(NCCCCCCNC(=O)n1cc(F)c(=O)[nH]c1=O)NCCCOCCOCCOCCOCCOCCOCCOCCOCCOCCOCCOCCOCCOCCOCCOCCOCCOCCOCCOCCOCCOCCCNC(=O)C(O)C(O)C(O)C(O)CO (centres undefined) with U251 CNS.
*A* > 100 µM
